// provenance: PubChem BioAssay (NCI)

- method_summary: NCI Yeast Anticancer Drug Screen. Data for the wt2 strain (AID 169);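 further: 0% = growth of vehicle-treated yeast cultures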
- condition_info: S. cerevisiae wt2 strain growth inhibition; at 33.0 µM; active compounds read high
Compounds without any hit were thinned out: in the full panel of roughly 79,000, 15% have a hit.
Entry flag: True if growth inhibition reaches 60%; False if it does not.

CCN(CC)CCNc1ccc2nc(C)n3c4ccc(OC)cc4c(=O)c1c23    False

Is reported growth inhibition greater than or equal to 60% here: CC(=O)CC(c1ccccc1)c1c(O)c2ccccc2oc1=O (centres undefined)
False

Dear colleague, could you confirm whether CC1=CC(C)(C)SC(SSSC2=NC(C)=CC(C)(C)S2)=N1 has growth inhibition at or above 60%?
False

Would you say CC1(C)OC(=O)C(=Cc2ccc([N+](=O)[O-])s2)C(=O)O1 shows growth inhibition at minimum 60%?
True

Exam item: decide whether the reported growth inhibition for CC(/C=C/c1ccc([N+](=O)[O-])o1)=N/N1CC(CN2CCOCC2)OC1=O (centres undefined) is at least 60%.
True

Does O=C(NO)c1coc2ccccc2c1=O have a reported growth inhibition of at least 60%?
False

Form field: growth inhibition at least 60%? Entry: Nc1cc(Cl)ccc1Nc1ccccc1
False

Is growth inhibition for Nc1ccc(/C=C/c2ccc3cccnc3c2)cc1 at or above 60%?
False

Has CC(=O)/C=C/c1cc([N+](=O)[O-])ccc1O a recorded growth inhibition greater than or equal to 60%?
True

Can CCCCCCCCCCCCCCCCCCNc1nc(=O)n(C2CC(OP(=O)(O)OCC3OC(n4cc(F)c(=O)[nH]c4=O)CC3O)C(CO)O2)cc1F (centres undefined) be said to have growth inhibition at or above 60%?
False

Does CC1C(c2ccccc2)SC(=N)N1C (centres undefined) have a reported growth inhibition of at least 60%?
False

Is it the case that C[N+](C)([O-])CCCNc1c2ccccc2nc2cccc([N+](=O)[O-])c12 has growth inhibition reaching or exceeding 60%?
True

Entry C[C@H](CCC1=NC(C)(C)CO1)C1CCC2[C@@H]3C(O)C[C@@H]4CC(O)CC[C@]4(C)C3CC[C@@]21C (some centres undefined) : is its growth inhibition no less than 60%?
True

Threshold query (growth inhibition >= 60%) on O=C1CC(C(O)(C(F)(F)F)C(F)(F)Cl)CCC1C(O)(C(F)(F)F)C(F)(F)Cl (centres undefined)
True

Exam item: decide whether the reported growth inhibition for CCCCS/C(=C(/C#N)C(N)=O)c1cc2c([nH]1)CCCC2 is at least 60%.
False

Form field: growth inhibition at least 60%? Entry: O=C(O)/C=C\C(=O)Nc1ccc2c(c1)Cc1cc(Cl)ccc1-2
False

Please check the record COc1ccc2nc3cccc([N+](=O)[O-])c3c(NCCNCCN(C)C)c2c1 and state if its growth inhibition is at or above 60%.
False

Hi team, for COC1/C=C\C=C(/C)C(=O)NC2=CC(=O)C(=O)C(=C2O)CC(C)CC(OC)C(O)C(C)/C=C(\C)C1OC(N)=O (centres undefined) , is the recorded growth inhibition at or above 60%?
True

Decide: growth inhibition of Cc1ccc(S(=O)(=O)Nc2cccc3cccnc23)cc1 >= 60%?
False

Determine whether this compound has growth inhibition no lower than 60%: CC(=O)Oc1ccc2c(c1)Cc1cc(N3C(=O)C=CC3=O)ccc1-2
True

Quick check: does CCC(=O)C1=C(O)c2cc(OC)ccc2CC1C(=O)OC (centres undefined) have growth inhibition greater than or equal to 60%?
False

Does O=C(NNc1ccccc1)C(CCCCNS(=O)(=O)Cc1ccccc1)NS(=O)(=O)Cc1ccccc1 (centres undefined) have a reported growth inhibition of at least 60%?
False

* * *

- method_summary: NCI Yeast Anticancer Drug Screen. Data for the rad18 strain (AID 177)
- condition_info: S. cerevisiae rad18 mutant growth inhibition; at 11.0 µM; active compounds read high
About 79,000 compounds went through this panel and 15% of them were active in at least one assay; those are over-represented in the sample as a whole.
Classification field: enter MET for growth inhibition values not below 10%, NOT MET for values below it.

Recorded results for 3 compounds are shown here.
NC(=S)N1N=C2c3ccccc3CC[C@H]2[C@@H]1c1ccc(Cl)cc1    NOT MET
CC(CN(C)C)C(=O)/C=C/c1ccc(Cl)c(Cl)c1 (stereo unspecified)    MET
Cc1cccc(C)c1NC(=O)CCC(=O)C(C)C(=O)c1ccc(O)cc1 (stereo unspecified)    NOT MET

Would you say CCCNCC(=O)O[C@]1(CC)C(=O)OCc2c1cc1n(c2=O)Cc2cc3ccccc3nc2-1 shows growth inhibition at minimum 10%?
MET

Test whether the compound CC1(C)C(O)OC(O)C1(C)C (stereo unspecified) records growth inhibition of 10% or higher.
MET

* * *

- method_summary: NCI Yeast Anticancer Drug Screen. Data for the mec2-1 strain (AID 157)
- condition_info: S. cerevisiae mec2-1 strain, at 50.0 µM (retest, dose inferred, filed as 5.0), active compounds read high
Compounds without any hit were thinned out: in the full panel of roughly 79,000, 15% have a hit.
Rule: growth inhibition of 90% or more gives Y; anything lower gives N.

Solved cases (8 shown):
c1ccc2c(c1)N=C1CCCC3CCCC123 (configuration not stated)    N
Cc1ccc(S(=O)(=O)Nc2cccc3cccnc23)cc1    Y
CC1=NN(C(=O)c2ccccc2O)C(=O)/C1=C/c1ccco1    Y
Cc1cc(C)c2[s+]snc2c1    N
O=C(NO)c1coc2ccccc2c1=O    N
CCC(/C=C/c1ccccc1)=N\Nc1ccc(Cl)c(Cl)c1    N
CC(C)N(CCCNc1c2ccccc2nc2cccc([N+](=O)[O-])c12)C(C)C    Y
O=C1c2cccc3cccc(c23)C(=O)N1O    Y

Given the entry CCC[CH2][Sn]([CH2]CCC)([CH2]CCC)/[C](=C/[Si](C)(C)c1ccccc1)c1ccc2c(c1)OCO2 , answer whether its growth inhibition meets or surpasses 90%.
N

Record COc1ccc(C2CC(C)(N3CCCC3)Oc3cc4c(cc32)OCO4)cc1 (configuration not stated) ; criterion: growth inhibition no lower than 90%. Met?
N

In plain terms: is recorded growth inhibition at least 90% for Nc1ccc(/C=C/c2ccc3cccnc3c2)cc1 ?
N

// inclusive: growth inhibition at least 90%? input: C=CCNC1=C2C[C@@H](C)C[C@H](OC)[C@H](O)[C@@H](C)/C=C(\C)[C@H](OC(N)=O)[C@@H](OC)/C=C\C=C(/C)C(=O)NC(=CC1=O)C2=O
Y

Decide: is the reported value of growth inhibition for Cc1cc(OCc2nc(N)nc(N)c2-c2ccc(Cl)c(Cl)c2)ccc1[N+](=O)[O-] equal to or greater than 90%?
N

Quick check: does CC1=CN2C(c3ccccc3)=NON(c3ccc(C)cn3)C2C=C1 (configuration not stated) have growth inhibition greater than or equal to 90%?
N

Is the recorded value of growth inhibition equal to or greater than 90% for this compound? CCCCCc1c(CCCC)c(=O)[nH]c2cc(CNCC(OC)OC)ccc12
Y

* * *

- method_summary: NCI Yeast Anticancer Drug Screen. Data for the mlh1 rad18 strain (AID 175)
- condition_info: S. cerevisiae mlh1 rad18 strain growth inhibition; at 5.0 µM (retest, dose inferred, filed as 0.5)
- Procedure: Growth inhibition of yeast strains with defined genetic alterations is measured as a screen for potential anti-cancer activity. Selected strains with alterations in DNA damage repair or cell cycle control were exposed to compounds and growth inhibition was measured relative to vehicle treated controls. The strain used in this assay is mlh1 rad18
The panel holds about 79,000 compounds, 15% with a hit somewhere; the sample as a whole holds those more often. Activity calls are given as the source filed them. No stated cut-off is given here; in the data, active means growth inhibition above about 70%; inactive means the rest.
# output must be one of 1 (yes) for active, 0 (no) for inactive

Known results for molecules:
Nc1ccc(N=Nc2ccc(-c3ccc(O)cc3)cc2)c2ccc(S(=O)(=O)O)cc12    0 (no)
O=C1/C(=C/c2ccc(Cl)c(Cl)c2)CNC/C1=C\c1ccc(Cl)c(Cl)c1    0 (no)
CCOC(=O)C(Cc1c2ccccc2cc2ccccc12)(NC(C)=O)C(=O)OCC    0 (no)
CC(C)C(c1ccccc1)c1ccccc1    0 (no)
CCCCCCNCCCNc1c2ccccc2nc2cccc([N+](=O)[O-])c12    1 (yes)

Tell me the assay call for C1=CCN([B-](c2ccccc2)[C+]2CCCCC2)C=C1 please.
0 (no)

Hi, sorry to bother you, what did the test record for O=C(c1ccccc1)[C@H]1Nc2ccc(Cl)cc2[C@H]2OCCC[C@@H]12 ?
0 (no)

// param item: S=C1N(c2ccc(Cl)cc2)C2=C(N=Nc3ccccc3)C(=Nc3ccccc3S2)N1c1ccccn1 ; yields the recorded call
0 (no)

Test call, this molecule: COc1ccc2nc3cccc([N+](=O)[O-])c3c(NCCCCCC(=O)O)c2c1
1 (yes)

Which result was noted for this molecule in the test: CCS(=O)(=O)Nc1ccc(Nc2c3ccccc3nc3ccccc23)c(OC)c1
1 (yes)

Recorded test outcome, item CCCCCCCCNCCCCCCCC
1 (yes)

# fetch the recorded call for COc1ccccc1NC(=O)c1ccc(Cl)cc1 here
0 (no)

Outcome? Cc1ccccc1NC(=O)c1c(C)oc2c1C(=O)c1ccccc1C2=O
0 (no)

Which outcome was entered for the molecule Cc1cc2nc3ccccc3n2c2ccccc12 in this test?
0 (no)

Recorded test outcome, item O=C(O)c1ccc2cc(Cl)c3ccccc3c2c1
0 (no)
